- Tested on: MCF-10A cells
- protocol-summary: Resazurin-based cell viability assay, monotherapy drug screen
- Set-up: species or system human; scale not given here
- recorded-conditions: area under the dose response curve, 24 h
Just a reminder that ties go to condition not met: only AUC strictly below 0.7 counts as condition met.

Enquiry: Criterion: AUC strictly below 0.7. Is it met by CC(C)C[C@H](NC(=O)[C@@H](NC(=O)c1cccc(-c2ccccc2)n1)[C@@H](C)O)B(O)O [Delanzomib] ?
Return: condition met

====

Entries annotated with measured GRmax
- System: HCC1806 cells
- protocol-summary: Resazurin-based cell viability assay, monotherapy drug screen
- Set-up: species or system human
- recorded-conditions: HCC1806; drug efficacy at highest tested dose (<0 cytotoxic, 0 cytostatic, >0 partial growth inhibition)
No unit in the answer, please; the number alone is enough.

Recorded results for 2 compounds are shown here.
INSERT INTO measurements (molecule_smiles, readout_label, result_number) VALUES
  ('CC[C@H](C)[C@H](NC(=O)[C@H]([C@@H](C)CC)N(C)C(C)=O)C(=O)N[C@H](C(=O)N[C@@H](CC(C)C)C(=O)[C@@]1(C)CO1)[C@@H](C)O', 'GRmax', 0.34),
  ('CCCc1ccc(OCC(=O)N(Cc2nc(-c3cccnc3)no2)C(C)C)cc1', 'GRmax', 0.98);

In the following, a different compound is considered.
Enquiry: Look at this compound and give its reported GRmax. CC(=O)O[C@@]12CO[C@@H]1C[C@H](O)[C@@]1(C)C(=O)[C@H](O)C3=C(C)[C@@H](OC(=O)[C@H](O)[C@@H](NC(=O)OC(C)(C)C)c4ccccc4)C[C@@](O)([C@@H](OC(=O)c4ccccc4)[C@H]21)C3(C)C
Return: 0.56
